Consider the following compounds; for each one, report its pIC50.
measurement-target: KRAS WT (Homo sapiens (Human), UniProt P01116+P62937)
Sequence (P01116-2 other isoform, or with tags, fused parts or gaps): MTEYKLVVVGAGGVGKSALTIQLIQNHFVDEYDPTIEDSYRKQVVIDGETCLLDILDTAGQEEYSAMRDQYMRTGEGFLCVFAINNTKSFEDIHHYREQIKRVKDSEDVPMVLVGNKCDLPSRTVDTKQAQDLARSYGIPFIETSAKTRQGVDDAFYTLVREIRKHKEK
Sequence (P62937 whole entry): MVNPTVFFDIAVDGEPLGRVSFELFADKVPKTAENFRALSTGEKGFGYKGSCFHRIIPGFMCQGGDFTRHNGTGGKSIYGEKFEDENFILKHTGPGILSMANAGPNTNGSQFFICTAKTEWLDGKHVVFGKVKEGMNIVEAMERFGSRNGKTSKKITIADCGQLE
assay-overview: Ras-Raf (BRAF RBD) disruption / FRET / MOA assay, KRAS WT
Type: biochemical
details: read-out: IC50* KRAS WT FRET data
pIC50: −log10 of the molar value.

stdin: Look up KRAS WT (Homo sapiens (Human), UniProt P01116+P62937) data: pIC50 of CCn1c(-c2cccnc2[C@H](C)OC)c2c3cc(ccc31)-c1cc(CF)cc(c1)C[C@H](NC(=O)[C@H](C(C)C)N1CC[C@]3(CCN(C(=O)C#CC(C)(C)N(C)C)C3)C1=O)C(=O)N1CCC[C@H](N1)C(=O)OCC(C)(C)C2 (atropisomer, axis not shown) , then report it.
stdout: 5.00 to 6.00

stdin: Look up KRAS WT (Homo sapiens (Human), UniProt P01116+P62937) data: pIC50 of C=CC(=O)N1CC[C@H](C(=O)N(C)[C@H](C(=O)N[C@H]2Cc3cccc(c3)-c3ccc4c(c3)c(c(-c3cccnc3[C@H](C)OC)n4CC)CC(C)(C)COC(=O)[C@@H]3CCCN(N3)C2=O)C(C)C)[C@@H]1C (atropisomer, axis not shown) , then report it.
stdout: < 5.00

stdin: Look up KRAS WT (Homo sapiens (Human), UniProt P01116+P62937) data: pIC50 of C=CC(=O)N1CC[C@H](C(=O)N(C)[C@H](C(=O)N[C@H]2Cc3cccc(c3)-c3ccc4c(c3)c(c(-c3cccnc3[C@H](C)OC)n4CC)CC(C)(C)COC(=O)[C@@H]3CCCN(N3)C2=O)C2COC2)C1 (atropisomer, axis not shown) , then report it.
stdout: 5.00 to 6.00

stdin: Look up KRAS WT (Homo sapiens (Human), UniProt P01116+P62937) data: pIC50 of CCn1c(-c2cccnc2[C@H](C)OC)c2c3cc(ccc31)-c1cnc(o1)C[C@H](NC(=O)[C@H](C(C)C)N(C)C(=O)[C@H]1CCN(C(=O)C#CC(C)(C)N(C)C)C1)C(=O)N1CCC[C@H](N1)C(=O)OCC(C)(C)C2 (atropisomer, axis not shown) , then report it.
stdout: 5.00 to 6.00

stdin: Look up KRAS WT (Homo sapiens (Human), UniProt P01116+P62937) data: pIC50 of "C=CC(=O)N1C2CC1CN(C(=O)N(C)[C@H](C(=O)N[C@H]1Cc3nc(cs3)-c3ccc4c(c3)c(c(-c3cccnc3[C@H](C)OC)n4CC)CC(C)(C)COC(=O)[C@@H]3CCCN(N3)C1=O)C(C)C)C2" , then report it.
stdout: 6.00 to 7.00

stdin: Look up KRAS WT (Homo sapiens (Human), UniProt P01116+P62937) data: pIC50 of C=CC(=O)N1CC[C@]2(CCN(C(=O)N(C)[C@H](C(=O)N[C@H]3Cc4nc(cs4)-c4ccc5c(c4)c(c(-c4cccnc4[C@H](C)OC)n5CC)CC(C)(C)COC(=O)[C@@H]4CCCN(N4)C3=O)C(C)C)C2)C1 (atropisomer, axis not shown) , then report it.
stdout: 6.00 to 7.00

stdin: Look up KRAS WT (Homo sapiens (Human), UniProt P01116+P62937) data: pIC50 of CCn1c(-c2cccnc2[C@H](C)OC)c2c3cc(ccc31)-c1csc(n1)C[C@H](NC(=O)[C@H](C(C)C)N(C)C(=O)N1CCN(C(=O)/C=C/CN(C)C)C[C@@H]1C)C(=O)N1CCC[C@H](N1)C(=O)OCC(C)(C)C2 (atropisomer, axis not shown) , then report it.
stdout: 6.00 to 7.00

stdin: Look up KRAS WT (Homo sapiens (Human), UniProt P01116+P62937) data: pIC50 of C=CC(=O)N1CC[C@@H]2[C@H]1CN2C(=O)N(C)[C@H](C(=O)N[C@H]1Cc2nc(cs2)-c2ccc3c(c2)c(c(-c2cccnc2[C@H](C)OC)n3CC)CC(C)(C)COC(=O)[C@@H]2CCCN(N2)C1=O)C(C)C (atropisomer, axis not shown) , then report it.
stdout: 5.00 to 6.00

stdin: Look up KRAS WT (Homo sapiens (Human), UniProt P01116+P62937) data: pIC50 of CCn1c(-c2cccnc2[C@H](C)OC)c2c3cc(ccc31)-c1cccc(c1)C[C@H](NC(=O)[C@@H](CO[C@H]1CCN(C(=O)C#CC(C)(C)N(C)C)C1)C(C)C)C(=O)N1CCC[C@H](N1)C(=O)OCC(C)(C)C2 (atropisomer, axis not shown) , then report it.
stdout: 5.00 to 6.00

stdin: Look up KRAS WT (Homo sapiens (Human), UniProt P01116+P62937) data: pIC50 of C=CC(=O)N1CCN(C(=O)N(C)[C@H](C(=O)N[C@H]2Cc3cc(O)cc(c3)-c3ccc4c(c3)c(c(-c3cccnc3[C@H](C)OC)n4CC)CC(C)(C)COC(=O)[C@@H]3CCCN(N3)C2=O)C(C)C)CC1 (atropisomer, axis not shown) , then report it.
stdout: 7.00 to 8.00

stdin: Look up KRAS WT (Homo sapiens (Human), UniProt P01116+P62937) data: pIC50 of "C=CC(=O)N1CC(O[C@H](C(=O)N[C@H]2Cc3cc(O)cc(c3)-c3ccc4c(c3)c(c(-c3cccnc3COC)n4CC)CC(C)(C)COC(=O)[C@@H]3CCCN(N3)C2=O)C(C)C)C1" , then report it.
stdout: < 5.00

stdin: Look up KRAS WT (Homo sapiens (Human), UniProt P01116+P62937) data: pIC50 of C=C(C)C(=O)N1CC(N(C)C(=O)N(C)[C@H](C(=O)N[C@H]2Cc3nc(cs3)-c3ccc4c(c3)c(c(-c3cccnc3[C@H](C)OC)n4CC)CC(C)(C)COC(=O)[C@@H]3CCCN(N3)C2=O)C(C)C)C1 (atropisomer, axis not shown) , then report it.
stdout: 6.00 to 7.00

stdin: Look up KRAS WT (Homo sapiens (Human), UniProt P01116+P62937) data: pIC50 of C=CC(=O)N1CC(OC[C@H](C(=O)N[C@H]2Cc3cc(F)cc(c3)-c3ccc4c(c3)c(c(-c3cccnc3[C@H](C)OC)n4CC(F)(F)F)CC(C)(C)COC(=O)[C@@H]3CCCN(N3)C2=O)C(C)C)C1 (atropisomer, axis not shown) , then report it.
stdout: 5.00 to 6.00

stdin: Look up KRAS WT (Homo sapiens (Human), UniProt P01116+P62937) data: pIC50 of "C=CC(=O)N1CC[C@H](C(=O)N(C)[C@H](C(=O)N[C@H]2Cc3cc(O)cc(c3)-c3ccc4c(c3)c(c(-c3ccccc3CCN3CCCC3)n4CC)CC(C)(C)COC(=O)[C@@H]3CCCN(N3)C2=O)C(C)C)C1" , then report it.
stdout: < 5.00

stdin: Look up KRAS WT (Homo sapiens (Human), UniProt P01116+P62937) data: pIC50 of "C=CC(=O)N1CC[C@H](C(=O)N(C)[C@H](C(=O)N[C@H]2Cc3cc(O)cc(c3)-c3ccc4c(c3)c(c(-c3cncnc3)n4CC)CC(C)(C)COC(=O)[C@@H]3CCCN(N3)C2=O)C(C)C)O1" , then report it.
stdout: 6.00 to 7.00
